Data credit: patent US6881732B2

test: acute in vivo toxicity, single intravenous dose in mice; conditions: mouse, in vivo, iv
Reported Metric: LD50 at 14 days

State the recorded LD50 at 14 days for this entry: `O=P(O)(O)CN1CCN(CP(=O)(O)O)CCN(CP(=O)(O)O)CC1`
> 3000 µmol/kg
